measurementProtocol: Activity against TXA2 synthase in bovine platelet microsome
endpoint: IC50 (nM)
Give bare numbers, in nM.

// recorded IC50 for O=C(O)c1ccc2c(c1)C(SCc1cccnc1)c1ccccc1CO2 (stereo unspecified) : 400

----------
Provide the reported pIC50 of each item.
targetSystem: Thromboxane-A synthase (Bos taurus)
measurementProtocol: Activity against TXA2 synthase in bovine platelet microsome
Numbers only, as −log10 of the molar value.

O=C(O)c1ccc2c(c1)C(SCc1cccnc1)c1ccccc1CO2 (configuration not stated) :: 8.40

Could you now look at the following compound, please?
// recorded pIC50 for C/C(=C\c1ccc(Cc2cccnc2)cc1)C(=O)O : 8.37
